STUDY SYSTEM: JAK1 (Homo sapiens (Human), UniProt P23458)
Sequence (P23458 866-1154): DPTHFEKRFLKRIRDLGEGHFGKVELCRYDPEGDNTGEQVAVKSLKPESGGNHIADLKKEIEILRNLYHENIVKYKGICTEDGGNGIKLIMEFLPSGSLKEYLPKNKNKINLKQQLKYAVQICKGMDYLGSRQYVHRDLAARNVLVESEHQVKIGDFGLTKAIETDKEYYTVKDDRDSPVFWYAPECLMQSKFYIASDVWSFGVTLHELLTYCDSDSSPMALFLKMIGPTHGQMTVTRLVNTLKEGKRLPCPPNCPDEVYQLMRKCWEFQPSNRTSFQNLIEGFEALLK
ASSAY OVERVIEW: JAK1 kinase inhibition assay (33P-ATP, Reaction Biology Corp.)
Format: biochemical
RECORDED CONDITIONS: substrate pEY, 120 min at room temperature, read-out: In Vitro Enzyme IC50 (nM) JAK1
Items are presented alongside their recorded log10 of IC50.
Please be aware that the numbers have been log10-transformed from IC50 in nM.

Previously resolved entries follow.
* NC(=O)c1nc(-c2c(F)cccc2F)oc1Nc1ccc(S(N)(=O)=O)cc1 | 1.89
* NC(=O)c1nc(-c2c(F)cccc2F)oc1Nc1ccc(C(=O)NCCO)cc1 | 1.61
* CNS(=O)(=O)c1ccc(Nc2oc(-c3c(F)cccc3F)nc2C(N)=O)cc1 | 1.82
* CS(=O)(=O)c1ccc(Nc2oc(-c3c(Cl)cccc3Cl)nc2C(N)=O)cc1 | 1.34
* NC(=O)c1nc(-c2c(F)cccc2F)oc1Nc1ccc(C(=O)N[C@@H]2CCCNC2)cc1 | 2.31
* CNCCNC(=O)c1ccc(Nc2oc(-c3c(F)cccc3F)nc2C(N)=O)cc1 | 2.26
* NC(=O)c1nc(-c2c(F)cccc2F)oc1Nc1ccc(C(=O)N[C@H]2CCNC2)cc1 | 2.09
* CS(=O)(=O)c1ccc(Nc2oc(-c3c(F)cc(F)cc3F)nc2C(N)=O)cc1 | 2.38

Recorded log10 of IC50 for NC(=O)c1nc(-c2c(F)cccc2F)oc1Nc1ccc(C(=O)N2CCC[C@@H]2CO)cc1 with JAK1 (Homo sapiens (Human), UniProt P23458), please?
1.83

Can you look up log10 of IC50 on JAK1 (Homo sapiens (Human), UniProt P23458) for CS(=O)(=O)c1ccc(Nc2oc(-c3c(F)cccc3F)nc2C(N)=O)cc1 ?
1.96

What is its log10 of IC50 for JAK1 (Homo sapiens (Human), UniProt P23458)? Entry: CNCCCNC(=O)c1ccc(Nc2oc(-c3c(F)cccc3F)nc2C(N)=O)cc1
2.28

Please state recorded log10 of IC50 (tested on JAK1 (Homo sapiens (Human), UniProt P23458)) of NC(=O)c1nc(-c2c(F)cccc2F)oc1Nc1ccc(C(=O)N[C@@H]2CCNC2)cc1
2.23

What measured log10 of IC50 is associated with CS(=O)(=O)c1ccc(Nc2oc(-c3cc(F)ccc3F)nc2C(N)=O)cc1 on JAK1 (Homo sapiens (Human), UniProt P23458)?
2.93

Record CS(=O)(=O)c1ccc(Nc2oc(-c3c(F)cccc3Cl)nc2C(N)=O)cc1 : what is its log10 of IC50 with JAK1 (Homo sapiens (Human), UniProt P23458)?
1.46
